Taken from patent US20250270339A1.

target: T1, Full length Mouse TfR on CHO cells (mouse, UniProt Q62351 1-763); assay: FACS, CHO+muTfR
T1 construct: also called CHO + muTfR
T1 sequence (Q62351 whole entry): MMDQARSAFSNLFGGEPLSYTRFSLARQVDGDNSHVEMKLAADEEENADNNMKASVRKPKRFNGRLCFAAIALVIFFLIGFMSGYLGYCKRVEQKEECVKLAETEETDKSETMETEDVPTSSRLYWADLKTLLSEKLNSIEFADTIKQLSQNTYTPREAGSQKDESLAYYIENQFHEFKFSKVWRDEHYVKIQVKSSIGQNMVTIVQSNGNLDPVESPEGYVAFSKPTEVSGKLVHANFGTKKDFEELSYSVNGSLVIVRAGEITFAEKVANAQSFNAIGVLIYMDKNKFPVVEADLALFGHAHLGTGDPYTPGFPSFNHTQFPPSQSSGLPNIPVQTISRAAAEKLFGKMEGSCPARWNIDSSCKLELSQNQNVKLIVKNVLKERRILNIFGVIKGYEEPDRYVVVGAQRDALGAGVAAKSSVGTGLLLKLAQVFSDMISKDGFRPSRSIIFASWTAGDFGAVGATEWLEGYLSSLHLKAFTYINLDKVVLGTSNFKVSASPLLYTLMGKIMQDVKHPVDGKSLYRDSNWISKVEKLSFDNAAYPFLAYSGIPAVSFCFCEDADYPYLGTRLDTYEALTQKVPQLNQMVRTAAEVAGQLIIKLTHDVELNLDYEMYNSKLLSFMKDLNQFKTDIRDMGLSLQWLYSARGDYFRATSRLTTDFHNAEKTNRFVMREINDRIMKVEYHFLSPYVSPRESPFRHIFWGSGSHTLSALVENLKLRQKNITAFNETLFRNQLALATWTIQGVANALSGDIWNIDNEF

binder	binding result
TfR32 (mouse hybridoma antibody) (antibody, V domains shown, mouse IgG in hybridoma supernatant) VH: QVQLQQSGADLVRPGTSVKVSCKASGNAFSNYLIEWVKQRPGQGLEWIGVINPGSGETNYNEKFKGKATLTADKSSSTAYMQLSSLTSDDSAVYFCAIRYDGPLLDHWGQGTSVTVSS VL: SIVMTQTPKFLLVSAGDRVTITCKASQSVSNDVAWFQQKPGQSPKLLIYYASNRYTGVPDRFTGSGYGTDFTFTIRNVQAEDLAVYFCQQDYISPTFGAGTKLELK	no binding
TfR1 (mouse hybridoma antibody) (antibody, V domains shown, mouse IgG in hybridoma supernatant) VH: QVQLQQSGPELVKPGASVKMSCKASGYTFTNYYIHWVKQRPGQGLEWIGWIYPGDGSTKYNEKFKGKTTLTADKSSSTAYMLLSSLTSEDSAIYFCARDGSSAPKFTYWGQGTLVTVSA VL: DIVMTQSPSSLTVTAGEKVTMRCKSSQSLLNSGNQKNYLTWYQQKPGQPPKLLIYWASTRESGVPDRFTGSGSGTDFTLTISSVQAEDLAVYYCQNDYSYPLTFGAGTKLELK	no binding
TfR15 (mouse hybridoma antibody) (antibody, V domains shown, mouse IgG in hybridoma supernatant) VH: QVQLQQPGSELVRPGASVKLSCKASGYTFTSYWMHWVKQRPGQGLEWIGNIYPGSGSSNYDEKFKSKATLTVDTSSSTAYMQLNSLTSEDSAVYYCTRSSYYGNFDTMDNWGQGTSVTVSS VL: QIVLTQSPAIMSASPGEKVTMTCSASSSIRYMNWYQQKPVTSPKRWIYDTSTLASGVPARFSGSGSGTSYSLTISSMEAEDAATYYCHQRSSYPWTFGGGTKLEIK	no binding
TfR18 (mouse hybridoma antibody) (antibody, V domains shown, mouse IgG in hybridoma supernatant) VH: QVQLQQSGAELVRPGTSVKVSCKASGYAFTNYLIEWIKQRPGQGLEWIGVINPGNNDTTYNEMFKAKTTLTADKSSNTAYMQLSSLTSDDSAVYFCARRSPYFDYWGQGTTLTVSS VL: SIVMTQTPKFLLVSAGDRVTITCKASQSVSNDVAWYQQKPGQSPKLLIYYASNRYTGVPDRFTGSGYGTDFTFTISTVQAEDLAVYFCHQDYSSPTFGGGTKLEIK	no binding
TfR22 (mouse hybridoma antibody) (antibody, V domains shown, mouse IgG in hybridoma supernatant) VH: DVQLQESGPGLVKPSQSLSLTCTVTGYSITSDYAWNWIRQFPGNKLEWMGYISYSGSTRYNPSLKSRISITRDTSKNQFFLQLNSVTTEDTATYYCTSWGYRYLEDYWGQGTSVTVSA VL: QIVLTQSPAIMSASPGERVTMTCSASSSISSMHWYQQKPGTSPKKWIYDTSKLASGVPARFSGSGSGTSYSLTISSMEAEDAATYYCHQRSSYPWTFGGGTKLEIK	no binding
TfR23 (mouse hybridoma antibody) (antibody, V domains shown, mouse IgG in hybridoma supernatant) VH: DVQLQESGPGLVKPSQSLSLTCTVTGYSITSDYAWNWIRQFPGNKLEWMGYISYSGSTSYNPSLKSRISITRDTSKNQFFLQLNSVTTEDTATYYCTSWGYRYLEDYWGQGTSVTVSS VL: QIVLTQSPAIMSASPGERVTMTCSASSSISSLHWYQQKPGTSPKKWIYDTSKLASGVPARFSGSGSGTSYSLAISSMEAEDAATYYCHQRSSYPWTFGGGTKLEIK	no binding
TfR17 (mouse hybridoma antibody) (antibody, V domains shown, mouse IgG in hybridoma supernatant) VH: DVQLQESGPGLVKPSQSLSLTCTVTGYSITSDYAWNWIRQFPGNKLEWMGYISYSGSTSYNPSLKSRISITRDTSKNQFFLQLNSVTTEDTATYYCASWGYRYLEDYWGQGTSVTVSS VL: QIVLTQSPAIMSASPGEKVTMTCSASSSISSMHWYQQKPGTSPKRWISDTSKLASGIPARFSGSGSGTSYSLTISSMAAEDAAAYYCHQRSSYPWTFGGGTKLEIK	no binding
